Tested on: MEK2;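 note: KINOMEscan kinase panel screen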
Construct: gene MAP2K2
Conditions: concentration: 1 μM,replicates: in singlicate; n = 1
Recorded %Inh for the following compounds
Could you give me the number in %? Just the number is fine.

| MOL | RECORDED ENDPOINT | OBSERVED RESULT |
| --- | --- | --- |
| Cc1occc1-c1nc(N)c(OC[C@@H](N)Cc2c[nH]c3ccccc23)cc1-c1cc2c(C)n[nH]c2cn1 | %Inh | 0 |
| O=C(NCCCN1CCOC1=O)c1cnc(NCc2cc(Cl)ccc2Cl)nc1NC1CCCC1 | %Inh | 30 |
| CN(C)CCOc1ccc(-c2cc(-c3c[nH]nc3-c3ccccn3)ccn2)cc1 | %Inh | 18 |
| NC(=O)c1cc(-c2ccccc2)cc2c(C3CCNCC3)c[nH]c12 | %Inh | 0 |
| CNC(=O)c1ccccc1Sc1ccc2c(/C=C/c3ccccn3)n[nH]c2c1 | %Inh | 0 |
| Cl.Oc1cc(-c2nc(-c3ccccc3)[nH]c2-c2ccncc2)ccc1Cl | %Inh | 2 |

Q: Need %Inh, item C[C@@H]1CCN(C(=O)CC#N)C[C@@H]1N(C)c1ncnc2[nH]ccc12
Ans: 0

Q: Need %Inh, item CCN(CC)CCOc1ccc(Nc2ncc3cc(-c4c(Cl)cccc4Cl)c(=O)n(C)c3n2)cc1
Ans: 98.7

All values here come from paper PMC5540273.
